Form field: TGI (one value per entry).
# System: SNB-75 CNS
# PROTOCOL_SUMMARY: NCI tumour cell line growth inhibition, 48 h

Cn1c(=O)c2c(nc(N)n2C2OC(CO)C(O)C2O)n(C)c1=O (centres undefined) | > 100 µM
CCCNC(C#N)c1ccc(OCCCCCCCCCCOc2ccc(C(C#N)NCCC)cc2)cc1 (centres undefined) | > 100 µM
O=C(O)c1ccc(NCc2nc3cc4ccccc4cc3[nH]2)cc1 | > 100 µM

Now let's try a different one.
Query (compound): Cc1ccc(C(CC(=O)C(C)(C)CN2CCCCC2)SCCS(=O)(=O)O)cc1 (centres undefined) ; field requested: TGI
96.4 µM

====

# Test system: A549 NSCLC
# PROTOCOL_SUMMARY: NCI tumour cell line growth inhibition, 48 h; in the data active = GI50 below about 0.43 µM; inactive = the rest
I would appreciate it if you answered using one of these outcomes: true (1) for active, false (0) for inactive

COc1cc2c(c(OC)c1OC)-c1ccc(SC)c(=O)cc1[C@@H](NCc1cccc(C#N)c1)CC2 | true (1)
COc1ccc(/C=C/C(=O)c2ccc3cc(OC)c(OC)cc3c2)cc1OC | false (0)
CCC[CH2][Ge]([CH2]CCC)([CH2]CCC)[O]C(=O)C(O)c1ccccc1 (stereo not given) | false (0)
Fc1ccc(-c2nnc3sc(COc4ccccc4Cl)nn23)cc1Cl | false (0)

Kindly review the next compound as well.
Each compound tested received a call. Report the one for c1ccc(-c2nnc(Nc3ccc4c(c3)OCCO4)o2)c(NCc2ccncc2)c1 .
true (1)

====

# Tested on: SNB-19 CNS
# PROTOCOL_SUMMARY: NCI tumour cell line growth inhibition, 48 h
PROPERTY_LABEL: TGI

COc1ccc(N2C(=O)c3cccnc3S2(=O)=O)cc1 | > 100 µM
CCOC(=O)C(Cc1ccccc1)NC(=O)OC(C)(C)C (stereo not drawn) | > 100 µM
CC#Cc1cc2c(cc1O)CC[C@@H]1[C@@H]2CC[C@]2(C)[C@@H](O)CC[C@@H]12 | 29.1 µM
Nc1c(C(=O)c2cccc(C#CCN3CCOCC3)c2)cnn1-c1ccc(F)cc1 | > 25 µM
S=C(N/N=C(/c1ccccc1)c1ccccn1)Nc1ccc(Cl)cc1 | 20.7 µM
O=C(Nc1ccccc1)NS(=O)(=O)c1ccc(N2N=C3c4ccccc4CC3C2c2ccccn2)cc1 (stereo not drawn) | > 100 µM
Cc1nc(-c2cc3c(ccc4ccccc43)oc2=O)cc2c1c(=O)oc1ccc3ccccc3c12 | > 100 µM
CSCCCNC(=O)c1csc(-c2csc(CCN)n2)n1 | > 100 µM
NC(=O)Nc1cc(O)ccc1N=Nc1ccc(S(=O)(=O)Nc2ccccn2)cc1 | > 100 µM
O=C(NCCNCCNCCNC(=O)c1cc(-c2ccccc2)nc2ccccc12)c1cc(-c2ccccc2)nc2ccccc12 | 8.93 µM

Continue with the molecule presented below.
Look at this molecule and give its reported TGI. Cc1c2cccc-2ccc2c1[nH]c1ccc(Br)cc12
23.8 µM

====

# System: K-562 leukemia
# PROTOCOL_SUMMARY: NCI tumour cell line growth inhibition, 48 h; in the data active = GI50 below about 0.43 µM; inactive = the rest
Give your call using only these classes: 1 (active), 0 (inactive)

C[C@]12CCC3c4ccc(O)cc4CCC3C1Cc1ccc(O)cc12 (stereo not given in full) | 0
Nc1ccn(C2CC(O)C(CO)O2)c(=O)n1 (stereo not given) | 0
Nc1c(C(=O)c2cccc(C#CCN3CCOCC3)c2)cnn1-c1ccc(F)cc1 | 0
O=C(O)C[O][Sb][O]CC(=O)O | 0
CC1(C)N=C(N)N=C(N)N1c1cccc(CCCCc2ccccc2)c1 | 1
CCC[CH2][Sn]([CH2]CCC)([O]C(=O)c1cc(OC)c(OC)cc1OC)[O]C(=O)c1cc(OC)c(OC)cc1OC | 1
COc1cc2ccnc3c2c(c1OC)-c1ccc(=O)ccc1-3 | 0
COc1ccc(/C=C/C(=O)c2ccc3cc(OC)c(OC)cc3c2)cc1OC | 0

So what was the verdict on N#CSCc1c(Cl)cccc1Cl in this test?
1

Field: outcome | Entry: O=C(NC(=S)NNC(=S)NNc1ccccc1)c1ccccc1
0

====

# Tested on: CCRF-CEM leukemia
# PROTOCOL_SUMMARY: NCI tumour cell line growth inhibition, 48 h
PROPERTY_LABEL: GI50

Record excerpt, results attached:
COc1cccc(-n2ncc3c(N/N=C/c4ccc(S(C)(=O)=O)cc4)ncnc32)c1 | > 25000 nM
N#CSCc1c(Cl)cccc1Cl | 323 nM
O=C(NNc1ccccc1)OCc1ccccc1 | 3940 nM
O=C(OCC1OC(OC(=O)c2cc(O)c(O)c(OC(=O)c3cc(O)c(O)c(O)c3)c2)C(OC(=O)c2cc(O)c(O)c(OC(=O)c3cc(O)c(O)c(O)c3)c2)C(OC(=O)c2cc(O)c(O)c(OC(=O)c3cc(O)c(O)c(O)c3)c2)C1OC(=O)c1cc(O)c(O)c(OC(=O)c2cc(O)c(O)c(O)c2)c1)c1cc(O)c(O)c(OC(=O)c2cc(O)c(O)c(O)c2)c1 (configuration not stated) | 18200 nM
O=c1oc2ccc(Cl)cc2c(=O)n1-c1cc(C(F)(F)F)cc(C(F)(F)F)c1 | 388 nM
CC1(C)CC(OCCCC[P+](c2ccccc2)(c2ccccc2)c2ccccc2)CC(C)(C)N1O | 246 nM
CN1CCN(Cc2ccc(NC(=O)c3nc4ccc5[nH]ncc5c4c4c3CCC4)cc2C(F)(F)F)CC1 | 1250 nM
ICCC(c1ccccc1)(c1ccccc1)c1ccccc1 | 3560 nM

Form entry - test system: CCRF-CEM leukemia; read-out: GI50; compound: Nc1c(C(=O)c2cccc(CCC3(O)CCCC3)c2)cnn1-c1ccc(F)cc1
18800 nM

GI50 of N#Cc1cccc(/C=C(/C(=O)c2ccccc2)c2ccccc2)c1 on CCRF-CEM leukemia?
2560 nM

Please provide the recorded GI50 for Cc1cc2c3ccccc3ccc2[n+]2ccccc12 , tested on CCRF-CEM leukemia.
4720 nM

For CCRF-CEM leukemia, provide GI50 of CCOC(=O)c1ccc(Nc2sc(C(=O)c3cccc([N+](=O)[O-])c3)c(N)c2C#N)cc1 please.
67 nM

====

# System: HS 578T breast
# PROTOCOL_SUMMARY: NCI tumour cell line growth inhibition, 48 h; in the data active means GI50 below about 0.43 µM; inactive means the rest
// allowed return values: yes for active, no for inactive

Call for entry C/C(=N\NC(=O)c1ccccc1O)c1cccc(/C(C)=N/NC(=O)c2ccccc2O)n1 :
no

Per the records of this test, what outcome belongs to O=c1oc2ccc(Cl)cc2c(=O)n1-c1cc(C(F)(F)F)cc(C(F)(F)F)c1 ?
yes

====

# TGI annotations
# System: NCI-H23 lung
# PROTOCOL_SUMMARY: NCI tumour cell line growth inhibition, 48 h

Recorded TGI, per entry:
Fc1ccc(-c2nnc3sc(COc4ccccc4Cl)nn23)cc1Cl | > 100 µM
C/C1=C\[C@H](C)C[C@H](C)OC(=O)C[C@H](c2ccc(O)cc2)NC(=O)[C@H](Cc2ccc(O)c(Br)c2)N(C)C(=O)[C@H](C)NC(=O)[C@@H](C)C1 | > 25 µM
C/C=C/C(C#N)(Cc1ccccc1)OP1(=O)OC(c2ccccc2)C(C)N1C (centres undefined) | > 100 µM
COC(=O)c1c2c(c(-c3ccccc3)c3c1-c1nc(Cl)ccc1CC3)CCc1ccc(Cl)nc1-2 | > 100 µM
NC(CSc1nc2ccccn2c1[N+](=O)[O-])C(=O)O (centres undefined) | > 100 µM

Returns the measured TGI for the input molecule. Input: COc1cc2c(c(OC)c1OC)-c1ccc(SC)c(=O)cc1[C@@H](NCc1cccc(C#N)c1)CC2
< 0.0075 µM

I would be grateful if you could share the reported TGI for CN(C)CCNC(=O)Cn1ccc(=O)c2ccc([N+](=O)[O-])cc21 .
> 100 µM

Look up TGI for this molecule: COc1cc(Br)cc2nc(-c3cccs3)oc12
> 100 µM

Please give the measured TGI for this molecule: CC(C)(C)OC(=O)NC(Cc1ccc(OCc2ccccc2)cn1)C(=O)NCc1ccccc1 (centres undefined)
47.3 µM

====

# Tested on: KM12 colon
# PROTOCOL_SUMMARY: NCI tumour cell line growth inhibition, 48 h
PROPERTY_LABEL: GI50

Examples with their reported GI50 follow.
N#Cc1cccc(/C=C(/C(=O)c2ccccc2)c2ccccc2)c1 | 3.31 µM
Cc1ccc2c(Nc3cccc(Cl)c3F)ncc(NC(=O)c3csc4c(N)ncnc34)c2c1 | > 20.7 µM
C#C[C@@]1(O)[C@@H](CO)O[C@@H](n2ccc3c(N)ncnc32)[C@@H]1O | 1.82 µM
COc1ccc2c(c1)sc1nc(-c3ccccc3)c(-c3ccc(O)c(OC)c3)n12 | 4.81 µM

Would you kindly look at the next entry?
State the recorded GI50 for this entry: O=C1c2ccccc2-c2n[nH]c3cccc1c23
3.1 µM

====

# Test system: OVCAR-5 ovarian
# PROTOCOL_SUMMARY: NCI tumour cell line growth inhibition, 48 h
PROPERTY_LABEL: TGI

Below: 3 compounds and their reported TGI.
COc1cc2c(c(OC)c1OC)-c1ccc(SC)c(=O)cc1[C@@H](NCc1cccc(C#N)c1)CC2 | > 75 µM
NC(CSc1nc2ccccn2c1[N+](=O)[O-])C(=O)O (centres undefined) | > 100 µM
ICCC(c1ccccc1)(c1ccccc1)c1ccccc1 | 27.1 µM

Recorded TGI of COC(=O)[C@@H]1C2OC(C)(C)OC2CN1C(=O)OCc1ccccc1 (some centres undefined) , please.
> 100 µM

Please give the measured TGI for this compound: CC(CO)(CO)Nc1ncnc2ccccc12
> 100 µM

Value lookup for TGI; key = Nc1c(C(=O)c2cccc(C#CCN3CCOCC3)c2)cnn1-c1ccc(F)cc1
> 25 µM

Data request, read-out TGI, for CCC[CH2][Ge]([CH2]CCC)([CH2]CCC)[O]C(=O)C(O)c1ccccc1 (centres undefined)
21.7 µM

Form field: reported TGI of CC1=C(C(=O)CC(=O)C(=O)Nc2ccccc2)Sc2ccccc2N1
> 100 µM

Need TGI, item Cc1ccc2c(Nc3cccc(Cl)c3F)ncc(NC(=O)c3csc4c(N)ncnc34)c2c1
> 100 µM

Need TGI of Cc1c(C(=O)/C=C/c2ccccc2Cl)[n+](=O)c2ccccc2n1[O-] , thanks.
35.7 µM

# query: TGI of entry C/C1=C\[C@H](C)C[C@H](C)OC(=O)C[C@H](c2ccc(O)cc2)NC(=O)[C@H](Cc2ccc(O)c(Br)c2)N(C)C(=O)[C@H](C)NC(=O)[C@@H](C)C1
> 25 µM

Dear colleague, I am looking for the recorded TGI of the following compound: O=C(O)c1ccc(NCc2nc3cc4ccccc4cc3[nH]2)cc1
> 100 µM

Using the record for CN1C(=O)c2c(c3c4ccccc4n(C4OC(CO)C(O)C(O)C4O)c3c3[nH]c4ccccc4c23)C1=O (centres undefined) , report its TGI.
6.67 µM

Field request: TGI | item: CCN(CC)CCOC(=O)CCN1CC2CCC(CC2)C1
> 100 µM
